Source: paper PMC8001000

System: monoclonal mouse anti-AMX antibody A1463 (clone 1.BB.832)
Test Protocol: indirect competitive ELISA (calibration curves of β-lactams and hydrolysis products)
Format: binding
Particulars: standards after alkaline hydrolysis (0.1 M NaOH, 24 h at 4 °C); read-out: IC50 (ELISA calibration curve)
Method: For the preparation of standards (calibrators), stock solutions of each compound with a mass concentration of approximately 1 g/L were prepared gravimetrically by weighing the respective compound and amount of solvent. […] Each cavity of a 96-well microplate was coated with AMX-HSA (or alternatively AMX-BSA) in PBS (47.619 ng/L, 200 µL/well) and incubated for 18 h at RT with shaking at 750 rpm. […] Optical density was read at RT at a wavelength of 450 nm with reference at 620 nm. […]
Recorded Metric: IC50 (nM)

compound=CC1(C)S[C@@H]2[C@H](NC(=O)[C@H](N)c3ccc(O)cc3)C(=O)N2[C@H]1C(=O)O reported=38.1
compound=CC1(C)S[C@@H]2[C@H](NC(=O)[C@H](N)c3ccccc3)C(=O)N2[C@H]1C(=O)O reported=36.2
compound=CC1(C)S[C@@H]2[C@H](NC(=O)Cc3ccccc3)C(=O)N2[C@H]1C(=O)O reported=11.1
compound=CC1(C)S[C@@H]2[C@H](NC(=O)COc3ccccc3)C(=O)N2[C@H]1C(=O)O reported=11.6
compound="CC1(C)S[C@@H]2[C@H](NC(=O)C(C(=O)O)c3ccccc3)C(=O)N2[C@H]1C(=O)O (some centres unmarked)" reported=3.8
